test.method.notes: in vivo
condition.info: Sprague-Dawley, rat, iv, 1 mg/mg
Listing of entries alongside the reported half-life.
Give your result in h as a bare value.

Form field half-life, entry CC(C)(C)c1cc(NC(=O)Nc2ccc(-n3nc(-c4ccc(OCCN5CCOCC5)cc4)c4c(N)ncnc43)cc2)no1 : 3.34

// below: half-life requested for another compound
Form field half-life, entry CC(C)(C)c1cc(NC(=O)Nc2ccc(-c3cn4c(n3)sc3cc(OCCN5CCOCC5)ccc34)cc2)no1 : 4.38

---

Listing of entries alongside the reported Cmax.
test.method.notes: in vivo
condition.info: Sprague-Dawley, rat, iv, 1 mg/mg
Give your result in ng/mL as a bare value.

Form field Cmax, entry CC(C)(C)c1cc(NC(=O)Nc2ccc(-n3nc(-c4ccc(OCCN5CCOCC5)cc4)c4c(N)ncnc43)cc2)no1 : 839

// below: Cmax requested for another molecule
Form field Cmax, entry CC(C)(C)c1cc(NC(=O)Nc2ccc(-c3cn4c(n3)sc3cc(OCCN5CCOCC5)ccc34)cc2)no1 : 728
